# assay_name: qHTS assay to identify small molecule agonists of the NFkB signaling pathway - cell viability counter screen (AID 1159515); also: nearly all actives have a fitted effect of over 55% in size
# conditions: NFkB-bla ME-180 viability, CellTiter-Glo luminescence, 5 h; series mostly up to 61 µM
Results filed as inconclusive are left out. Activity calls are given as the source filed them. Calls follow the shape of the full dose curve.
Lab note: assign the record to one of t for active, f for inactive

Solved cases below.
[
  {
    "compound": "CC(C)(CO)[N+](=O)[O-]",
    "class": "f"
  },
  {
    "compound": "Nc1ccc([N+](=O)[O-])c(C(F)(F)F)c1",
    "class": "f"
  },
  {
    "compound": "Clc1ccc2c(c1)CCc1cccnc1C2=C1CCNCC1",
    "class": "f"
  },
  {
    "compound": "CCOc1ccc(N=Nc2ccc(/C=C/c3ccc(N=Nc4ccc(OCC)cc4)cc3S(=O)(=O)O)c(S(=O)(=O)O)c2)cc1",
    "class": "f"
  }
]

Query block: Which result was noted for this compound in the test: O=C(O)c1ccco1
Result block: f

Query block: Which result was noted for this compound in the test: CCCNCC(O)COc1ccccc1C(=O)CCc1ccccc1 (stereo not given)
Result block: f

Query block: Which result was noted for this compound in the test: Brc1c2ccccc2cc2ccccc12
Result block: f

Query block: Which result was noted for this compound in the test: CCCCC(CC)COC(=O)COc1ccc(Cl)cc1Cl (stereo not given)
Result block: f

Query block: Which result was noted for this compound in the test: CCCCCCc1ccc(-c2ccc(C#N)cc2)cc1
Result block: f

Query block: Which result was noted for this compound in the test: NS(=O)(=O)c1ccc(N2CCCCS2(=O)=O)cc1
Result block: f

Query block: Which result was noted for this compound in the test: CCCCO
Result block: f
